System: P388 leukemia ip, CD2F1 mice, survival T/C
Test: NCI In Vivo Anticancer Drug Screen. Data for tumor model P388 Leukemia (intraperitoneal) in CD2F1 (CDF1) mice
Conditions: endpoint: median survival time; dose: 240.0 mg/kg/injection; schedule: Q01DX005 (ip); vehicle: Klucel (hydroxypropylcellulose) (HPC); higher = longer survival
Inconclusive results and toxic doses are left out.
Property name: T/C

{"Molecule": "Cc1ccc(NC(=O)N(C)C)c(C)c1", "Property name": "T/C", "Experimental value": "94 % of control"}
{"Molecule": "Cc1cc2c(=O)cc(-c3ccccc3)oc2c(C#N)c1C", "Property name": "T/C", "Experimental value": "93 % of control"}
{"Molecule": "CCN(CC)c1cccc(Nc2nc3ccccc3s2)c1", "Property name": "T/C", "Experimental value": "93 % of control"}
{"Molecule": "CCOC(=O)c1cn(CC)c2c(ccc3cnccc32)c1=O", "Property name": "T/C", "Experimental value": "98 % of control"}
{"Molecule": "Cc1cc2c(cc1C)NC(=O)C(NC(=O)c1ccc(Cl)cc1)C=N2 (stereo unspecified)", "Property name": "T/C", "Experimental value": "93 % of control"}
{"Molecule": "CCOC1(OCC)Oc2c(Cl)c(Cl)c(Cl)c(Cl)c2OC1(OCC)OCC", "Property name": "T/C", "Experimental value": "104 % of control"}
{"Molecule": "CNC(=O)NC(c1cc(OC)c(OC)c(OC)c1)c1cc2c(cc1O)OCO2 (stereo unspecified)", "Property name": "T/C", "Experimental value": "87 % of control"}
{"Molecule": "COc1ccc(C2=NC(=O)OC2(C)C)cc1", "Property name": "T/C", "Experimental value": "108 % of control"}
{"Molecule": "COc1cc2c(cc1OC)C13CC[N+]4(C)CC5=CCOC6CC(=O)N2C1C6C5CC34[O-] (stereo unspecified)", "Property name": "T/C", "Experimental value": "111 % of control"}
{"Molecule": "O=c1[nH]c2c([N+](=O)[O-])cc(Cl)cc2nc1/C=C(\\O)c1ccccn1", "Property name": "T/C", "Experimental value": "98 % of control"}
{"Molecule": "C1=Cc2ccccc2/C1=C/c1cc2c3c(c1)CCCN3CCC2", "Property name": "T/C", "Experimental value": "92 % of control"}
{"Molecule": "Fc1ccc(Nc2c3ccccc3nc3c2cnn3-c2ccccc2)cc1", "Property name": "T/C", "Experimental value": "90 % of control"}
{"Molecule": "Clc1ccc(-c2csc3nc(-c4cccs4)nn23)cc1", "Property name": "T/C", "Experimental value": "93 % of control"}
{"Molecule": "C=C1N=NN(c2ccc(C)cc2)C1N1CCOCC1 (stereo unspecified)", "Property name": "T/C", "Experimental value": "90 % of control"}
{"Molecule": "CC1CC(C)CN(S(=O)(=O)c2cc(Cl)c(Oc3ccc([N+](=O)[O-])cc3Cl)c(Cl)c2)C1 (stereo unspecified)", "Property name": "T/C", "Experimental value": "110 % of control"}
{"Molecule": "O=C(NCc1nc2ccccc2[nH]1)C(F)(F)F", "Property name": "T/C", "Experimental value": "104 % of control"}
